- Assay Overview: endothelial E-selectin expression blockers – imaging, HUVEC, immunofluorescence, MLSMR starter and 10KST1 sets, primary screen (AID 487);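 note: signal is fraction of cell area covered by stained E-selectin grains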
- Condition Description: HUVEC TNFalpha-induced E-selectin immunofluorescence imaging, at 2 µM; active compounds read high
Use -20% as the dividing line for inhibition, with the line itself on the y side and lower values as n.

Is inhibition for O=C(Nc1cccc(F)c1)c1ccc2c(c1)OCO2 at or above -20%?
y

Hi team, for CCOC(=O)C1=C(C)NC(=O)NC1c1ccc(Br)s1 (stereo not drawn) , is the recorded inhibition at or above -20%?
y

Determine whether measured inhibition meets or exceeds -20% for O=C(Nc1ccc2c(c1)OCCO2)NC1CCCCC1
n

inhibition >= -20% for Cc1ccccc1-c1nc(CN2CCC(C(=O)NCc3cccnc3)CC2)c(C)o1 ?
n

Can Cc1ccccc1Cn1ccc(NC(=O)c2cnn3c(C(F)(F)F)cc(-c4ccco4)nc23)n1 be said to have inhibition at or above -20%?
y

Reported inhibition reaches at least -20% for O=C(Cc1c(F)cccc1Cl)Nc1ccncc1 ?
n

Kindly determine if inhibition recorded for CCN(CC)S(=O)(=O)c1ccc(N2CCCC2)c(C(=O)OCC(=O)/C(C#N)=C(\C)N)c1 is above or exactly -20%.
y

Is inhibition at least -20%? Consider Cc1cccc2cc(CN(Cc3nnnn3Cc3ccco3)C3CCCC3)c3nnnn3c12
y

Does the compound O=C(CSCc1n[nH]c(=O)[nH]1)NCCOc1cccc(Oc2ccccc2)c1 have recorded inhibition that is -20% or more?
y

Decide: inhibition of Cc1nc(CNS(=O)(=O)c2cc(C)c(C)cc2C)cs1 >= -20%?
y

Is the recorded value of inhibition equal to or greater than -20% for this compound? O=C(CCCn1c(=O)[nH]c2ccsc2c1=O)N1CCN(c2ccccn2)CC1
y

Could you tell me if the measured inhibition of N#Cc1c(NC(=O)CSc2nnnn2C2CCCC2)sc2c1CCCC2 reaches -20% or more?
y

Decide: inhibition of CCOC(=O)N1CCN(c2cc3nccnc3cc2F)CC1 >= -20%?
n

Hi, just wondering whether O=C(CCCCC(=O)NCc1cccs1)NCc1cccs1 shows inhibition of -20% or higher.
y

Evaluate Cc1cc(NC(=O)CSc2nc(C3CC3)nc3sc4c(c23)CCC(C)C4)no1 (stereo not drawn) : inhibition at minimum -20%?
n

Decide: inhibition of COc1ccccc1NC(=O)N1CCN(c2cccc(C(F)(F)F)c2)CC1 >= -20%?
n

Would you say Cc1nc(NC2=NCN(CCc3ccccc3)CN2)nc2c(C)cccc12 shows inhibition at minimum -20%?
y

Answer whether inhibition of Cc1nn(Cc2ccccc2)c(C)c1NC(=O)c1cc(-c2ccco2)on1 is greater than or equal to -20%.
y

Determine whether measured inhibition meets or exceeds -20% for O=C(O)C1CCCN1c1ncnc2c1oc1ccccc12 (stereo not drawn)
y

Threshold query (inhibition >= -20%) on COCCN1C(=O)c2oc3c(C)cc(C)cc3c(=O)c2C1c1cccc(O)c1 (stereo not drawn)
n

Is it the case that COc1ccc2[nH]c(=O)c(CN(Cc3cccs3)Cc3nnnn3C(C)(C)C)cc2c1 has inhibition reaching or exceeding -20%?
y

Determine whether this compound has inhibition no lower than -20%: Cc1occc1C(=O)N1CCN(c2ncccn2)CC1
n

Check the entry CCC(=O)N1CCNC(=O)C1CC(=O)Nc1ccc(C)c(Cl)c1 (stereo not drawn) : does inhibition equal or exceed -20%?
n

###

- Assayed System: Voltage-gated potassium channel subunit beta-2 (Rattus norvegicus)
- Assay Overview: enhancers of rat Kvbeta2 NADPH turnover – biochemical, NADPH fluorescence, primary screen (AID 623);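 note: fluorescence intensity change per second fitted from 20 to 320 s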
- Condition Description: Recombinant KvBeta, NADPH fluorescence decrease slope, 10 min; at 10 µM; active compounds read low
Value Kind: NADPH fluorescence slope
Give the value as a plain number.

Please report the recorded NADPH fluorescence slope for Cn1c(=O)cc(SCC(=O)NCc2cccnc2)c2ccccc21 .
-3.9e-05

Which NADPH fluorescence slope value is on record for COCCN1C(=O)c2oc3c(C)cc(C)cc3c(=O)c2C1c1cccc(O)c1 (stereo unspecified) ?
-5.1e-05

Recorded NADPH fluorescence slope of Cc1nc(C)c2c(c1C(F)(F)F)-c1ccccc1C2(F)F , please.
-8.2e-06

Can you share its NADPH fluorescence slope? I mean this compound: Cc1nn(Cc2ccccc2)c(C)c1NC(=O)CCC(=O)O
1.1e-05

Which NADPH fluorescence slope value is on record for COc1ccc(CCNC(=O)CN(c2ccccc2OC)S(C)(=O)=O)cc1 ?
-0.000127

Endpoint output: NADPH fluorescence slope of O=C(Nc1ccc2c(c1)OCO2)c1nn(-c2ccccc2)c(=O)c2ccccc12 . Value?
2e-05

Need NADPH fluorescence slope of O=C(CN1C(=O)c2ccccc2C1=O)Nc1ccc(S(=O)(=O)NCC2CCCO2)cc1 (stereo unspecified) , thanks.
-2.5e-05

Any idea what NADPH fluorescence slope was measured for COC(=O)c1cc2ccsc2n1CC(=O)N(C)c1ccccc1 ?
4.1e-06

Requested read-out: NADPH fluorescence slope. Entry: Cc1nc(NC2=NCN(CCN3CCOCC3)CN2)nc2c(C)cccc12
-3.7e-05

Quick check: NADPH fluorescence slope of Cc1cc(NCCN2CCOCC2)n2nc(C)c(-c3ccccc3)c2n1 ?
-2.5e-05

Need NADPH fluorescence slope of Cc1ccc(CNC(=O)c2coc(=O)c3ccccc23)o1 , thanks.
-0.000402

###

- Assayed System: Voltage-gated potassium channel subunit beta-2 (Rattus norvegicus)
- Assay Overview: enhancers of rat Kvbeta2 NADPH turnover – biochemical, NADPH fluorescence, primary screen (AID 623);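 note: fluorescence intensity change per second fitted from 20 to 320 s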
- Condition Description: Recombinant KvBeta, NADPH fluorescence decrease slope, 10 min; at 10 µM; active compounds read low
Field: NADPH fluorescence slope. Provide a value for each of the compounds that follow.
No unit in the answer, only the number.

// query NADPH fluorescence slope value for entry COc1ccc(C(NC(=O)c2ccco2)c2ccc(OC)c(OC)c2)cc1 (stereo unspecified)
-6.7e-05

Need NADPH fluorescence slope, item CCC(CCC(=O)Nc1cccc(C(=O)O)c1)C(=O)O (stereo unspecified)
-2.4e-05

I would be grateful if you could share the reported NADPH fluorescence slope for N#CC1=C(N)OC2=C(CCC/C2=C/c2ccoc2)C1c1ccoc1 (stereo unspecified) .
-5.7e-05

Item under review: Cc1ccc2nc3c(cc(C(=O)NCC4CCCO4)n3C)c(=O)n2c1 (stereo unspecified) . Reported NADPH fluorescence slope?
-3.2e-06

Which measured NADPH fluorescence slope value corresponds to Cc1ccc2c(C(=O)CN3CCSCC3)c(C)[nH]c2c1 ?
-8.2e-05

Sample O=C(NCCc1ccccc1)C1CCCN(S(=O)(=O)c2cccs2)C1 (stereo unspecified) — what was its NADPH fluorescence slope?
-2.3e-05

Dear colleague, I am looking for the recorded NADPH fluorescence slope of the following compound: Cc1c(C)n(C(=O)CN2CCN(c3ccccn3)CC2)c2ccccc12
-3.7e-05

Record request: NADPH fluorescence slope value, item Cc1cccc(-n2ncc3c(NCc4ccccn4)ncnc32)c1
-4.2e-05

State the recorded NADPH fluorescence slope for this entry: Cc1sc2ncnc(SCC(=O)N3CCCC3)c2c1C
-0.000107

Quick one: NADPH fluorescence slope for Cc1ccc2ncnc(NCCCN3CCOCC3)c2c1 ?
-0.000336

Item under review: Cc1ccc(Cn2c(SCC(N)=O)nc3c2c(=O)n(C)c(=O)n3C)cc1 . Reported NADPH fluorescence slope?
1e-05

###

- Assayed System: Voltage-gated potassium channel subunit beta-2 (Rattus norvegicus) (UniProt P62483)
- Sequence (P62483 whole entry, looked up): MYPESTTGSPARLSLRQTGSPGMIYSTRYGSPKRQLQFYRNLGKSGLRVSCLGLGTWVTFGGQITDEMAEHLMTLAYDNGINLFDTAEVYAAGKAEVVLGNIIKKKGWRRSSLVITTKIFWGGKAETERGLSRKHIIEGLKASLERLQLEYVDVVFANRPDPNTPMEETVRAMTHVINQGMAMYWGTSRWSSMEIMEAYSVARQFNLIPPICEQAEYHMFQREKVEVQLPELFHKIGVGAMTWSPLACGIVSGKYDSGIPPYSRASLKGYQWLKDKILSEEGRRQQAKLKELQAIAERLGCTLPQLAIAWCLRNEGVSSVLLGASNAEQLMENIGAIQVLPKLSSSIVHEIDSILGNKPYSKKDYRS
- Assay Overview: enhancers of rat Kvbeta2 NADPH turnover – biochemical, NADPH fluorescence, primary screen (AID 623);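 note: fluorescence intensity change per second fitted from 20 to 320 s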
- Condition Description: Recombinant KvBeta, NADPH fluorescence decrease slope, 10 min; at 10 µM; active compounds read low
Active and inactive are the calls of the source.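 Rule for the calls: active = NADPH fluorescence slope more negative than the mean of all samples by about 3 SD, 99.7% confidence; inactive = the rest.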
Kindly supply the reported NADPH fluorescence slope values for the records listed here.

What does the record list as NADPH fluorescence slope for Cc1ccc(S(=O)(=O)CCC(=O)Nc2ccc3c(c2)OCO3)cc1 ?
-6.2e-05 (inactive)

Query: NADPH fluorescence slope; subject: CCOC(=O)c1cc(C)n(CCCN2CCOCC2)c1C
1.5e-05 (inactive)

I would be grateful if you could share the reported NADPH fluorescence slope for Cc1cc(N)n2nc(-c3ccccc3)cc2n1 .
-8.6e-05 (inactive)

If you can, please state the reported NADPH fluorescence slope value of CC(=O)N(c1ccc(Br)cc1)C1C=CS(=O)(=O)C1 (stereo unspecified) .
-4.3e-05 (inactive)

Please give the measured NADPH fluorescence slope for this compound: Cc1ccc(S(=O)(=O)C2(C(=O)N3CCCCCC3)CC2)cc1
4.7e-05 (inactive)

Quick check: NADPH fluorescence slope of NC(=O)c1ccsc1NC(=O)COC(=O)Cc1ccsc1 ?
-4.6e-05 (inactive)

Entry COc1ccc(CNc2oc(-c3cccc4ccccc34)nc2C#N)cc1 : reported NADPH fluorescence slope = ?
6.8e-06 (inactive)

// returns reported NADPH fluorescence slope for input O=c1oc2ccccc2n1CCc1ccccc1
-0.000209 (inactive)

Can you look up the measured NADPH fluorescence slope of COCC(C)NC(=O)CCS(=O)(=O)c1nc(-c2ccc(OC)cc2)cc(C(F)(F)F)n1 (stereo unspecified) for me?
-2.1e-05 (inactive)

Any idea what its NADPH fluorescence slope is? The compound is Cn1c(=O)oc2cc(S(=O)(=O)N3CCCC(C(=O)NCC4COc5ccccc5O4)C3)ccc21 (stereo unspecified)
1.7e-05 (inactive)

NADPH fluorescence slope for Cc1noc(/C=C/N(C)C)c1S(=O)(=O)N1CCCC(C(=O)NC2CCCCC2)C1 (stereo unspecified) ?
1.6e-05 (inactive)
